# Tested on: U2OS
# assay-comment: Antiproliferative activity against human U2OS cells assessed as reduction in cell viability incubated for 24 to 72 hrs by IncuCyte zoom live cell analysis
# Format: functional, cell-based
Listed here: items and their measured IC50.
Please give a number only; it is taken to be in µM.

Reference set, count: 2
[[record]]
compound_smiles = "COc1ccc(-n2c[n+]([O-])c(C(=O)Nc3ccccc3)c2C)cc1N1CCCCS1(=O)=O"
experimental_endpoint = "IC50"
test_value = 14.9

[[record]]
compound_smiles = "Cc1c(C(=O)Nc2ccccc2)[n+]([O-])cn1-c1ccc2occc(=O)c2c1"
experimental_endpoint = "IC50"
test_value = 9.5


Here's the next entry for you.
# `Cc1c(C(=O)Nc2ccccc2)[n+]([O-])cn1-c1ccc2[nH]c(CC(C)C)nc2c1` with U2OS: IC50 is 3.7

----------
Observed pKd values for L-lactate dehydrogenase A chain (Homo sapiens, UniProt P00338) are listed in what follows.
// returns pKd (minus log10 of molar concentration), number only

[[record]]
compound_smiles = "Cc1c(C(=O)Nc2ccccc2)[n+]([O-])cn1-c1ccc2[nH]c(CC(C)C)nc2c1"
experimental_endpoint = "pKd"
test_value = 5.62


We next turn to a different compound, shown below.
Case `COc1ccc(-n2c[n+]([O-])c(C(=O)Nc3ccccc3)c2C)cc1N1CCCCS1(=O)=O` , L-lactate dehydrogenase A chain (Homo sapiens, UniProt P00338), pKd recorded as 5.19

----------
# tested-target: L-lactate dehydrogenase A chain (Homo sapiens)
# assay-comment: Inhibition of human LDHA using NADH and pyruvate by microplate reader based assay
experimental-endpoint: pEC50
Would you please state pEC50, meaning minus log10 of the concentration in mol/L, as a bare number?

Response field pEC50 (L-lactate dehydrogenase A chain (Homo sapiens)) for item `Cc1c(C(=O)Nc2ccccc2)[n+]([O-])cn1-c1ccc2[nH]c(CC(C)C)nc2c1` : 6.17

Item `COc1ccc(-n2c[n+]([O-])c(C(=O)Nc3ccccc3)c2C)cc1N1CCCCS1(=O)=O` ; assay system L-lactate dehydrogenase A chain (Homo sapiens); pEC50 reported as 5.52

Query `Cc1c(C(=O)Nc2ccccc2)[n+]([O-])cn1-c1ccc2occc(=O)c2c1` on L-lactate dehydrogenase A chain (Homo sapiens); pEC50 returned: 5.49
